Kindly state Fluorescence intensity (transfection expression intensity) for each of the entries shown.
System: BMDC primary cells
measurement notes: Luc mRNA LNP transfection of the four amino lipids on BMDC primary cells (Embodiment 28, Table 15)
Type: cell-based, C57BL/6 mice
condition set: Luc mRNA LNP 10 μL per well, 16 h, ONE-Glo Luciferase
Answers are plain numbers.

Problem: Fluorescence intensity (transfection expression intensity) lookup needed for CCCCCCCCCCC(CCCCOC(=O)C(CCCCCC)CCCCCCCC)OC(=O)CCCN(C)C (stereo not shown) , thanks.
Result: 9.3E+03

Your task in this section: give Fluorescence intensity (transfection expression intensity) for each listed record.
1. CCCCCCCCCCC(CCCOC(=O)C(CCCCCC)CCCCCCCC)OC(=O)CCCN(C)C (stereo not shown)
2. CCCCCCCCCCC(CCOC(=O)C(CCCCCC)CCCCCCCC)OC(=O)CCCN(C)C (stereo not shown)
3. CCCCCCCCCCC(COC(=O)C(CCCCCC)CCCCCCCC)OC(=O)CCCN(C)C (stereo not shown)

Result:
2.5E+04
4.9E+04
8.8E+04

###

Kindly state Relative Transfection Efficiency for each of the entries shown.
Tested on: HeLa cells
measurement notes: In-vitro evaluation of E7C71A9, Compound A, B, C as Luc-mRNA vector (Embodiment 27, Table 14)
Type: cell-based
condition set: Luc-mRNA 100 ng/well, 16-20 h, relative to Lipofectamine3000, lipid:DSPC:cholesterol:PEG2000-DMG 43:10.5:45:1.5

Sample records with Relative Transfection Efficiency:
Problem: Relative Transfection Efficiency lookup needed for CCCCCCCCCCC(CCCOC(=O)C(CCCCCC)CCCCCCCC)OC(=O)CCCN(C)C (stereo not shown) , thanks.
Result: 0.45

Problem: Relative Transfection Efficiency lookup needed for CCCCCCCCCCC(COC(=O)C(CCCCCC)CCCCCCCC)OC(=O)CCCN(C)C (stereo not shown) , thanks.
Result: 2.0

Problem: Relative Transfection Efficiency lookup needed for CCCCCCCCCCC(CCCCOC(=O)C(CCCCCC)CCCCCCCC)OC(=O)CCCN(C)C (stereo not shown) , thanks.
Result: 0.39

Consider the additional molecule presented here.
Problem: Relative Transfection Efficiency lookup needed for CCCCCCCCCCC(CCOC(=O)C(CCCCCC)CCCCCCCC)OC(=O)CCCN(C)C (stereo not shown) , thanks.
Result: 0.62

Origin of measurements: patent US12679801B2
